// provenance: ChEMBL document CHEMBL5154645

# TEST_SYSTEM: Procathepsin L (Mus musculus, UniProt P06797)
# Sequence (P06797 whole entry): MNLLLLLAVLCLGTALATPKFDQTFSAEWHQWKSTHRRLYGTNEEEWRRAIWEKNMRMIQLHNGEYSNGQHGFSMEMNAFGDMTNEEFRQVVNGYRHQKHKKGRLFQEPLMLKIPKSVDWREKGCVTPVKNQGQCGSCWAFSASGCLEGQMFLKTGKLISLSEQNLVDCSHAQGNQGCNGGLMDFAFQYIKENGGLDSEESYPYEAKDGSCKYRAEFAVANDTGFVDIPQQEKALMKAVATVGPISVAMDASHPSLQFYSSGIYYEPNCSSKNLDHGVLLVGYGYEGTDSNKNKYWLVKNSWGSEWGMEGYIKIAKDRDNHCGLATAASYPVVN
pKi: −log10 of the molar value.
Hi, to clarify the labels: t covers pKi from 8 upward, f covers anything below 8.

# input Hi team, for COC1=CC(=O)N(C(=O)/C=C/[C@H](C)NC(=O)[C@H](CC(C)C)NC(=O)[C@H](CC(C)C)NC(=O)C2CCN(C)CC2)[C@H]1Cc1c[nH]c2ccccc12 , is the recorded pKi at or above 8?
# output t

# input Hi team, for COC1=CC(=O)N(C(=O)/C=C/[C@H](C)NC(=O)[C@H](CC(C)C)NC(=O)[C@H](CC2CCCCC2)NC(=O)C2CCN(C)CC2)[C@H]1Cc1c[nH]c2ccccc12 , is the recorded pKi at or above 8?
# output f

# input Hi team, for CC[C@H](C)[C@@H](C(=O)O[C@@H](CC(C)C)C(=O)N[C@@H](CC(C)C)C(=O)N[C@@H](C)/C=C/C(=O)N1C(=O)C=C(OC)[C@@H]1C)N(C)C [GALLINAMIDE A] , is the recorded pKi at or above 8?
# output t

# input Hi team, for COC1=CC(=O)N(C(=O)/C=C/[C@H](CCc2ccccc2)NC(=O)[C@H](CC(C)C)NC(=O)[C@H](CC(C)C)NC(=O)[C@H](C(C)C)N(C)C)[C@H]1Cc1c[nH]c2ccccc12 , is the recorded pKi at or above 8?
# output t

---

# TEST_SYSTEM: Procathepsin L (Homo sapiens)
# Sequence (P07711 114-333 limits assumed): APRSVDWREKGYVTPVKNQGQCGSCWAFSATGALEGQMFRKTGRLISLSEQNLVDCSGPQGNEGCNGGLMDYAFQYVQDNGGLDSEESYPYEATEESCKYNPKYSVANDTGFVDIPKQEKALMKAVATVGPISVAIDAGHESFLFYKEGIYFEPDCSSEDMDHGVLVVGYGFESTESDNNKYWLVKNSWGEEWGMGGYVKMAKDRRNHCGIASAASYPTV
# EXPERIMENT_NOTES: Inhibition of human recombinant Cathepsin L assessed as ratio of Kinact/Kiapp using Z-FR-AMC as substrate inubated for 30 mins by fluorometric assay
EXPERIMENTAL_READOUT: Ratio

INSERT INTO assay_data (item_smiles, measured_result) VALUES
  ('COC1=CC(=O)N(C(=O)/C=C/[C@H](C)NC(=O)[C@H](CCc2ccccc2)NC(=O)[C@H](CC2CCCCC2)NC(=O)[C@H](C(C)C)N(C)C)[C@H]1Cc1c[nH]c2ccccc12', '1.89 10^5/s/M');

# input compound: COC1=CC(=O)N(C(=O)/C=C/[C@H](CCc2ccccc2)NC(=O)[C@H](CC(C)C)NC(=O)[C@H](CC(C)C)NC(=O)[C@H](C(C)C)N(C)C)[C@H]1Cc1c[nH]c2ccccc12 ; wanted: its Ratio
# output 8.35 10^5/s/M

# input compound: COC1=CC(=O)N(C(=O)/C=C/[C@H](C)NC(=O)[C@H](CC(C)C)NC(=O)[C@H](CC2CCCCC2)NC(=O)C2CCN(C)CC2)[C@H]1Cc1c[nH]c2ccccc12 ; wanted: its Ratio
# output 1.93 10^5/s/M

# input compound: COC1=CC(=O)N(C(=O)/C=C/[C@H](C)NC(=O)[C@H](CC(C)C)NC(=O)[C@H](CC(C)C)NC(=O)C2CCN(C)CC2)[C@H]1Cc1c[nH]c2ccccc12 ; wanted: its Ratio
# output 2.9 10^5/s/M

---

# TEST_SYSTEM: Procathepsin L (Mus musculus) (UniProt P06797)
# EXPERIMENT_NOTES: Inhibition of mouse Cathepsin L assessed as Kinact using Z-FR-AMC as substrate inubated for 30 mins by fluorometric assay
# Kinact annotations

INSERT INTO results (molecule, measured_result) VALUES
  ('COC1=CC(=O)N(C(=O)/C=C/[C@H](C)NC(=O)[C@H](CC(C)C)NC(=O)[C@H](CC(C)C)NC(=O)C2CCN(C)CC2)[C@H]1Cc1c[nH]c2ccccc12', '3.19 10^-3/s');

# input molecule: COC1=CC(=O)N(C(=O)/C=C/[C@H](C)NC(=O)[C@H](CCc2ccccc2)NC(=O)[C@H](CC2CCCCC2)NC(=O)[C@H](C(C)C)N(C)C)[C@H]1Cc1c[nH]c2ccccc12 ; wanted: its Kinact
# output 2.24 10^-3/s

# input molecule: COC1=CC(=O)N(C(=O)/C=C/[C@H](CCc2ccccc2)NC(=O)[C@H](CC(C)C)NC(=O)[C@H](CC(C)C)NC(=O)[C@H](C(C)C)N(C)C)[C@H]1Cc1c[nH]c2ccccc12 ; wanted: its Kinact
# output 9.6 10^-3/s

# input molecule: COC1=CC(=O)N(C(=O)/C=C/[C@H](C)NC(=O)[C@H](CC(C)C)NC(=O)[C@H](CC2CCCCC2)NC(=O)C2CCN(C)CC2)[C@H]1Cc1c[nH]c2ccccc12 ; wanted: its Kinact
# output 8.56 10^-3/s

# input molecule: CC[C@H](C)[C@@H](C(=O)O[C@@H](CC(C)C)C(=O)N[C@@H](CC(C)C)C(=O)N[C@@H](C)/C=C/C(=O)N1C(=O)C=C(OC)[C@@H]1C)N(C)C [GALLINAMIDE A] ; wanted: its Kinact
# output 5.69 10^-3/s

---

# TEST_SYSTEM: Cathepsin B (Homo sapiens)
# EXPERIMENT_NOTES: Inhibition of human recombinant Cathepsin B assessed as Apparent inhibition constant using Z-FR-AMC as substrate inubated for 30 mins by fluorometric assay
# CONDITIONS: read-out: Ki(app)
# pKi annotations
# pKi = -log10(concentration in molar units)

Recorded results for 4 molecules are shown here.
INSERT INTO assay_data (molecule, experimental_readout, measured_result) VALUES
  ('CC[C@H](C)[C@@H](C(=O)O[C@@H](CC(C)C)C(=O)N[C@@H](CC(C)C)C(=O)N[C@@H](C)/C=C/C(=O)N1C(=O)C=C(OC)[C@@H]1C)N(C)C [GALLINAMIDE A]', 'pKi', 6.93),
  ('COC1=CC(=O)N(C(=O)/C=C/[C@H](C)NC(=O)[C@H](CCc2ccccc2)NC(=O)[C@H](CC2CCCCC2)NC(=O)[C@H](C(C)C)N(C)C)[C@H]1Cc1c[nH]c2ccccc12', 'pKi', 6.46),
  ('COC1=CC(=O)N(C(=O)/C=C/[C@H](C)NC(=O)[C@H](CC(C)C)NC(=O)[C@H](CC2CCCCC2)NC(=O)C2CCN(C)CC2)[C@H]1Cc1c[nH]c2ccccc12', 'pKi', 6.06),
  ('COC1=CC(=O)N(C(=O)/C=C/[C@H](C)NC(=O)[C@H](CC(C)C)NC(=O)[C@H](CC(C)C)NC(=O)C2CCN(C)CC2)[C@H]1Cc1c[nH]c2ccccc12', 'pKi', 6.07);

Now, please, on to the next molecule.
# input molecule: COC1=CC(=O)N(C(=O)/C=C/[C@H](CCc2ccccc2)NC(=O)[C@H](CC(C)C)NC(=O)[C@H](CC(C)C)NC(=O)[C@H](C(C)C)N(C)C)[C@H]1Cc1c[nH]c2ccccc12 ; wanted: its pKi
# output 6.62
